Exercise: state measured IC50 for each of the compounds provided.
# System under test: human recombinant full-length Btk enzyme (Homo sapiens)
# Sequence (Q06187 whole entry): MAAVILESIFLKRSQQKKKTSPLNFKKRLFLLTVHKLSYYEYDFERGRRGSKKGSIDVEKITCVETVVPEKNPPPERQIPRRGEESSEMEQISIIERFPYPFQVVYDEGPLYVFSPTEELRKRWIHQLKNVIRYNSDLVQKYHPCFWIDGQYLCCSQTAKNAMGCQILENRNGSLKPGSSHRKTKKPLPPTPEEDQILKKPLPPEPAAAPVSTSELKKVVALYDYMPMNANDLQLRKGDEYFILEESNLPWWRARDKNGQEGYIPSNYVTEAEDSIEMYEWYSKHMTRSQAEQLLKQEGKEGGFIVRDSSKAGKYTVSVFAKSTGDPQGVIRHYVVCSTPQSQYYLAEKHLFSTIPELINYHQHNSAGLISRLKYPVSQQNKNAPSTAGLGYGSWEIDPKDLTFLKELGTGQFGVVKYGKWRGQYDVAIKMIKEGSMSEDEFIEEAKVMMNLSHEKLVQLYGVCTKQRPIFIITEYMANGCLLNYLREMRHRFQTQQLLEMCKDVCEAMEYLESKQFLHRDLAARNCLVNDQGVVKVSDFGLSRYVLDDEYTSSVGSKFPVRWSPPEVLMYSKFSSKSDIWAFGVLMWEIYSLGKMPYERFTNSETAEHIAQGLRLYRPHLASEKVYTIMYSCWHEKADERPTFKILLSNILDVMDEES
# Experiment: Omnia Continuous Read Kinase Assay, Btk inhibition
# Assay type: biochemical
# Parameters: human recombinant full-length Btk enzyme
# Measurement setup: 30 minutes pre-incubation at 27° C.; 0.5 nM to 10 μM

For the 5 compounds below, give their IC50 values.
1. O=C(Nc1cccc(Nc2nc(Nc3ccc(O)cc3)ncc2F)c1)C(O)CO (centres unmarked)
2. C=CC(=O)Nc1ccc(O)c(Nc2nc(Nc3ccc(OCCOC)cc3)ncc2F)c1
3. COCCOc1ccc(Nc2ncc(F)c(Nc3cccc(NC(=O)C4CO4)c3)n2)cc1 (centres unmarked)
4. C=CC(=O)Nc1cccc(Nc2nc(Nc3ccc(OCCOC)c(O)c3)ncc2F)c1
5. COCCOc1ccc(Nc2ncc(F)c(Nc3cccc(N4OCCC4=O)c3)n2)cc1

stdout:
1. 101 to 500 nM
2. 11 to 100 nM
3. ≤ 10 nM
4. ≤ 10 nM
5. 101 to 500 nM

###

# System under test: BTK (Homo sapiens)
# Construct: endogenous in cells; host or cells: Ramos cells
# Experiment: Btk target site occupancy, covalent probe ELISA in Ramos cells
# Assay type: cell-based
# Measurement setup: 1 hour at 37° C., 0.09-200 nM, read-out: Ramos cell EC50 (nM), BTK occupancy
Measurement name: EC50

Look over these answered cases.
{"Compound": "C=CC(=O)Nc1cccc(Nc2nc(Nc3ccc(OCCOC)cc3)ncc2F)c1O [Compound I-18]", "EC50": "< 50 nM"}
{"Compound": "C=CC(=O)Nc1cccc(Nc2nc(Nc3ccc(OCCOC)c(O)c3)ncc2F)c1 [Compound I-13]", "EC50": "< 50 nM"}
{"Compound": "O=C(Nc1cccc(Nc2nc(Nc3ccc(OCCO)cc3)ncc2F)c1)C1CO1 (centres unmarked) [Compound I-22]", "EC50": "< 50 nM"}

For the 2 compounds below, give their EC50 values.
1. COCCOc1ccc(Nc2ncc(F)c(Nc3cccc(NC(=O)C4CO4)c3)n2)cc1 (centres unmarked) [Compound I-19]
2. C=CC(=O)Nc1cccc(Nc2nc(Nc3ccc(O)cc3)ncc2F)c1 [Compound I-3]

stdout:
1. < 10 nM
2. < 50 nM
